src = patent US20100138945A1

Item-by-item account of Kd
target: T1, human IL-6 (Interleukin-6) (human, UniProt P05231 30-212); assay: Biacore (SPR), antibody captured on anti-human Fc, IL-6 as analyte
T1 construct: also called 001 IL-6 antigen
Give a bare numeral; the unit pM is implied.

Clone BA399-09 (antibody, V domains shown, also called BA399-9; BA399 clone #9) VH: QVQLVQSGAEVKKPGASVKVSCKASGFTFSSFSMSWIRQSPSRGLEWLGEISSGGSYHYYPDTVTGRFTISRDNAKNSLYLQMNSLRAEDTAVYYCARGQWGYYALDYWGQG VL: AIQLTQSPSSLSASVGDRVTITCYASSSVSYMYWYQQKPGQAPRLLIYDTLNLASGIPPRFSGSGYGTDFTLTINNIESEDAAYYFCQQWSGYPYTFGQG    0.0783
BA399_CPS_10 (antibody, V domains shown, also called Clone BA399-10; BA399_10) VH: QVQLVQSGAEVKKPGASVKVSCKASHFTFSSFSMSWIRQSPSRGLEWLGEISSGGSYHYYPDTVTGRFTISRDNAKNSLYLQMNSLRAEDTAVYYCARGQWGYYALDYWGQG VL: AIQLTQSPSSLSASVGDRVTITCYASSSVSYMYWYQQKPGQAPRLLIYDTLNLASGIPPRFSGSGYGTDFTLTINNIESEDAAYYFCQQWSGYPYTFGQG    0.284
Clone BA399-05 (antibody, V domains shown, also called BA399-5) VH: QVQLVQSGAEVKKPGASVKVSCKASGFTFSSFAMSWIRQSPSRGLEWLGEISSGGSYTYYPDTKTGRFTISRDNAKNSLYLQMNSLRAEDTAVYYCARGQWGYYALDYWGQG VL: AIQLTQSPSSLSASVGDRVTITCYASSSVSYMYWYQQKPGQAPRLLIYDTSNLASGIPPRFSGSGYGTDFTLTINNIESEDAAYYFCQDWSGYPYTFGQG    28.4

// Kd value for Clone BA399-02 (antibody, V domains shown, also called BA399-2; BA399 clone #2) VH: QVQLVQSGAEVKKPGASVKVSCKASGFTFSSFSMSWIRQSPSRGLEWLGEISSGGSYTYYPDTKTGRFTISRDNAKNSLYLQMNSLRAEDTAVYYCARGQWGYYALDYWGQG VL: AIQLTQSPSSLSASVGDRVTITCYASSSVSYMYWYQQKPGQAPRLLIYDTSNLASGIPPRFSGSGYGTDFTLTINNIESEDAAYYFCQQWSGYPYTFGQG : 0.0123
